# tested-target: T1, G9a and GLP (Homo sapiens, UniProt Q96KQ7+Q9H9B1)
# T1 sequence (Q96KQ7 2-1210 limits assumed): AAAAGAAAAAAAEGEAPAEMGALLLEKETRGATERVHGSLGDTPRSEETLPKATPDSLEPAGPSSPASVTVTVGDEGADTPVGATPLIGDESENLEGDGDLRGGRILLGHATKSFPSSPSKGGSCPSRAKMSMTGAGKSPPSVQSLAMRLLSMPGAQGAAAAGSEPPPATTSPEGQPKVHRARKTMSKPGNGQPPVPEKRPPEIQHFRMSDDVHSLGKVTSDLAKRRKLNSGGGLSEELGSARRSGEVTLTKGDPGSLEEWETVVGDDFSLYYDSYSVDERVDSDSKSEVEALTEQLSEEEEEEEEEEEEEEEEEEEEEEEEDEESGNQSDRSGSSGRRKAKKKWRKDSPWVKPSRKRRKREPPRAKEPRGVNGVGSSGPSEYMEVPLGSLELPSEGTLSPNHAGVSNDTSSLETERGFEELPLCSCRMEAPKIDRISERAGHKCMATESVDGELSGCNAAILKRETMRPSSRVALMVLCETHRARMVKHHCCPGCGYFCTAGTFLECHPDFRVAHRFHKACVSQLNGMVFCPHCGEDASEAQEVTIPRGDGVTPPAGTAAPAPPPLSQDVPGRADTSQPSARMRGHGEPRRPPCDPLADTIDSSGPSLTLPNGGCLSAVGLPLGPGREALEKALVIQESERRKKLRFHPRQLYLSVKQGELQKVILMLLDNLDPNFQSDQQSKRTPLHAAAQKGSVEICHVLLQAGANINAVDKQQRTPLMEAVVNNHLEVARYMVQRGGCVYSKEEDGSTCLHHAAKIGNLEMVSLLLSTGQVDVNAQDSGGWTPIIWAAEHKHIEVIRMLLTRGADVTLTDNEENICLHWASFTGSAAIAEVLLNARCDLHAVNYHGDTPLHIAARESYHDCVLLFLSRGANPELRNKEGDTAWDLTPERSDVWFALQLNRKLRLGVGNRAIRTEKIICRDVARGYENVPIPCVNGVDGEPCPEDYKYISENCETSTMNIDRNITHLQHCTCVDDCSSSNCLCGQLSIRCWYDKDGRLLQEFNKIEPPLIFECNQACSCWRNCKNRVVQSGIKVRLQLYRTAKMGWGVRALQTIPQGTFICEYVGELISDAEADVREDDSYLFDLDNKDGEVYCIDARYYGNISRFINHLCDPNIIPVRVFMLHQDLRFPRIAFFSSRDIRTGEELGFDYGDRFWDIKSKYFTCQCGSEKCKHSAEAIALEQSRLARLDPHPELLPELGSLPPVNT
# T1 sequence (Q9H9B1 2-1298 limits assumed): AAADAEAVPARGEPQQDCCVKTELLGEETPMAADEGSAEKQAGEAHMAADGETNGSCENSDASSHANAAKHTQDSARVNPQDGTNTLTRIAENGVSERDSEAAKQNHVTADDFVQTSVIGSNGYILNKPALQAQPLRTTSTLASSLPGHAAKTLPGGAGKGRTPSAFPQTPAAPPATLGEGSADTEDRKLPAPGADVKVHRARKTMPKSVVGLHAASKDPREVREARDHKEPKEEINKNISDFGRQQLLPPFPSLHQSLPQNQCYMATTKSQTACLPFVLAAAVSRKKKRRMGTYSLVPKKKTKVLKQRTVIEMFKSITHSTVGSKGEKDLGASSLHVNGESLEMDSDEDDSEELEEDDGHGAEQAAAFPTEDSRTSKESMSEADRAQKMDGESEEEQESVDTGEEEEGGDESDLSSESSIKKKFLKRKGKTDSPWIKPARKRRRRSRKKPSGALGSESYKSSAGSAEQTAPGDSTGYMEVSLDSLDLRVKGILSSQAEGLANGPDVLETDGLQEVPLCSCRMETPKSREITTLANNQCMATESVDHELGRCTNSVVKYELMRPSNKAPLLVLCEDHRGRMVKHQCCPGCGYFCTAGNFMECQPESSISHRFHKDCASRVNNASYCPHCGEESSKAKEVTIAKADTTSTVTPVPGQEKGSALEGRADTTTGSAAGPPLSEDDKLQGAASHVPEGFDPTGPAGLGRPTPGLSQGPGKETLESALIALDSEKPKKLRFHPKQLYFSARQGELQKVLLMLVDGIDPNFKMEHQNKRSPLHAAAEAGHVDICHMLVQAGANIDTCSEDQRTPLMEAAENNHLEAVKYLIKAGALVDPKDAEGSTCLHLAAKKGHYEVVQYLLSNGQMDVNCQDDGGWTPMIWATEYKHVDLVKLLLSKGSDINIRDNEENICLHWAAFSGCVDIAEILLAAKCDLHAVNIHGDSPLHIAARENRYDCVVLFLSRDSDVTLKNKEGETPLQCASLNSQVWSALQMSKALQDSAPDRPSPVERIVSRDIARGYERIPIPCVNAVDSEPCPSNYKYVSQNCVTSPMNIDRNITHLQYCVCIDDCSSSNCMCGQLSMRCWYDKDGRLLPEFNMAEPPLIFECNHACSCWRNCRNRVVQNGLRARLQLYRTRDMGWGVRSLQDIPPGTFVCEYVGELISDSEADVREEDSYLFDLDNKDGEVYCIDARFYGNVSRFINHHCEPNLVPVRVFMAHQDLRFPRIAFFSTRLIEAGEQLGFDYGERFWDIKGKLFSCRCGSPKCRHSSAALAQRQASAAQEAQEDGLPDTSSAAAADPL
# test-summary: Triple SILAC pull-down after UNC0638 treatment of 293T cells, DMSO/UNC0638 ratio of protein captured by 3×MBT;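 further: mass spectrometry (Q-Exactive) SILAC quantitation, DMSO/UNC0638 ratio computed after subtracting 3×MBTD355N mutant pull-down background, only proteins with at least twofold 3×MBT over mutant signal considered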
# Assay type: cell-based
# Design: cells were treated for 24 hours with UNC0638 at 2.5 μM or DMSO vehicle control; endogenous in cells; host or cells: HEK 293T
# conditions: average of UNC Light and UNC Heavy experiments

[
  {
    "molecule": "DRG1 (protein, UniProt Q9Y295 2-367, looked up) Developmentally-regulated …: SSTLAKIAEIEAEMARTQKNKATAHHLGLLKARLAKLRRELITPKGGGGGGPGEGFDVAKTGDARIGFVGFPSVGKSTLLSNLAGVYSEVAAYEFTTLTTVPGVIRYKGAKIQLLDLPGIIEGAKDGKGRGRQVIAVARTCNLILIVLDVLKPLGHKKIIENELEGFGIRLNSKPPNIGFKKKDKGGINLTATCPQSELDAETVKSILAEYKIHNADVTLRSDATADDLIDVVEGNRVYIPCIYVLNKIDQISIEELDIIYKVPHCVPISAHHRWNFDDLLEKIWDYLKLVRIYTKPKGQLPDYTSPVVLPYSRTTVEDFCMKIHKNLIKEFKYALVWGLSVKHNPQKVGKDHTLEDEDVIQIVKK",
    "Relative to UNC0638 Average (log base 2)": 0.16
  },
  {
    "molecule": "C20orf43 (protein, UniProt Q9BY42 1-306, looked up) Replication termination …: MGCDGGTIPKRHELVKGPKKVEKVDKDAELVAQWNYCTLSQEILRRPIVACELGRLYNKDAVIEFLLDKSAEKALGKAASHIKSIKNVTELKLSDNPAWEGDKGNTKGDKHDDLQRARFICPVVGLEMNGRHRFCFLRCCGCVFSERALKEIKAEVCHTCGAAFQEDDVIMLNGTKEDVDVLKTRMEERRLRAKLEKKTKKPKAAESVSKPDVSEEAPGPSKVKTGKPEEASLDSREKKTNLAPKSTAMNESSSGKAGKPPCGATKRSIADSEESEAYKSLFTTHSSAKRSKEESAHWVTHTSYCF",
    "Relative to UNC0638 Average (log base 2)": 1.01
  }
]
